Data credit: patent US11992494B2

- System: UniProtKB P25105
- Sequence (P25105 whole entry): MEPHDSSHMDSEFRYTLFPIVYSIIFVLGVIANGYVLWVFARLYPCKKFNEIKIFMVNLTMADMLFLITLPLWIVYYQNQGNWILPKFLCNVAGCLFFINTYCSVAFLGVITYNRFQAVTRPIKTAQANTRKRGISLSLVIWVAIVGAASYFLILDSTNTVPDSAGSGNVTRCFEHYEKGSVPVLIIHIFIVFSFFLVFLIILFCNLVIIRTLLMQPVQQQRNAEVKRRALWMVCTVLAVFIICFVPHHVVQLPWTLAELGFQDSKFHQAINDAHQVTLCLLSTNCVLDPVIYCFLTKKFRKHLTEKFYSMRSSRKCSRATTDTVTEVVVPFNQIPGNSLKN
- Method Notes: cellular HTRF IP1 assay: inhibition of PAFR activation by PAF C-16 ligand (endpoint assay)
- Format: cell-based
- Set-up: expressed in transfected cells; host or cells: HEK293
- Study Conditions: HEK293 cells overexpressing human PAFR; PAF ligand 11 nM; Table 2
pIC50: −log10 of the molar value.
Outcome Measure: pIC50

A selection of reference data follows.
| Compound | pIC50 |
| --- | --- |
| Cc1nnc2n1-c1sc3c(c1C(c1ccccc1Cl)=NC21CC1)C[C@H](C(=O)NC1(c2ccccn2)CC1)C3 [Example 87] | 8.31 |
| Cc1nnc2n1-c1sc3c(c1C(c1ccccc1Cl)=NC21CC1)C[C@H](C(=O)NC1CC2CCC(C1)O2)C3 (some centres unmarked) [Example 90] | 8.06 |
| Cc1nnc2n1-c1sc3c(c1C(c1ccccc1Cl)=NC21CC1)C[C@H](C(=O)N(C)[C@@H]1CCOC1)C3 [Example 48] | 8.17 |

A. Cc1nnc2n1-c1sc3c(c1C(c1ccccc1Cl)=NC21CC1)C[C@H](C(=O)N[C@H]1COCC(F)(F)C1)C3 [Example 116]
B. Cc1nnc2n1-c1sc3c(c1C(c1ccccc1Cl)=NC21CC1)C[C@H](C(=O)N1CC2(CCCO2)C1)C3 [Example 126]
// which entry has the larger pIC50 value, A or B ? Indicate which entry you chose by stating its label.
A
